Biological target: human D3 receptor (Homo sapiens, UniProt P35462)
Construct: expressed in transfected cells; host or cells: Chinese hamster ovary (CHO) cells, membranes
Sequence (P35462 whole entry): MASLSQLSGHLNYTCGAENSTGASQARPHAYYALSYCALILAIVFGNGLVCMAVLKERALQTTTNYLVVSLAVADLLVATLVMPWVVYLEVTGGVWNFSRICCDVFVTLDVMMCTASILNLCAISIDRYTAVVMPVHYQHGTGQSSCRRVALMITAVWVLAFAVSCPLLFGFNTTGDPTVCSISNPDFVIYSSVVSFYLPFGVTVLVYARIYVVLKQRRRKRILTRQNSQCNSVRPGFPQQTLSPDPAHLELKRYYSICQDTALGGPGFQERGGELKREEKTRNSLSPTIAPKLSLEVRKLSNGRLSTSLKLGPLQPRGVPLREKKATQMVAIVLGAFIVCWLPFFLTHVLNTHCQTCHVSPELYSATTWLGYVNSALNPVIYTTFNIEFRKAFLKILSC
Assay: radioligand binding with [^3H]spiperone, D3
Conditions: ether alkylene linker compounds
quantity: Ki (nM)
Entry rule: numbers only, all in nM.

Answered cases to consult:
[[record]]
molecule = "COc1ccccc1N1CCN(CCCCOc2ccn3ncc(Cl)c3c2)CC1"
recorded_result = 4.6

[[record]]
molecule = "COc1ccccc1N1CCN(CCCCOc2cc3ccccn3n2)CC1 [Example E2]"
recorded_result = 12

[[record]]
molecule = "COc1ccccc1N1CCN(CCCCOc2ccn3ncc(Br)c3c2)CC1"
recorded_result = 3.5


Input: Give Ki (human D3 receptor (Homo sapiens, UniProt P35462)) of the following molecule: Clc1cccc(N2CCN(CCCCOc3cc4ccccn4n3)CC2)c1Cl [Example E1]
Output: 3.5

====

# melting point annotations
Record the value in °C, omitting the unit from your answer.

Consider the following illustrative entries.
[[record]]
molecule = "O=Cc1cnn2cc(OCCCCN3CCN(c4cccc(Cl)c4Cl)CC3)ccc12"
recorded_result = 99

[[record]]
molecule = "COc1ccccc1N1CCN(CCCCOc2nn3ccccc3c2C=O)CC1"
recorded_result = 101


Input: Fill in the blank: the reported melting point of Clc1cccc(N2CCN(CCCCOc3cc4ccccn4n3)CC2)c1Cl [Example E1] is ____.
Output: 161

====

Listing of recorded Ki by entry.
Molecular target: human D3 receptor (Homo sapiens, UniProt P35462)
Construct: expressed in transfected cells; host or cells: Chinese hamster ovary (CHO) cells, membranes
Experiment: radioligand binding with [^3H]spiperone, D3
Conditions: [^3H]spiperone, CHO membranes, mean of 2 to 4 experiments

[[record]]
compound = "COc1ccccc1N1CCN(CCCCOc2cccc3c(C=O)cnn23)CC1 [Example E61]"
recorded_result = "301 to 3000 nM"


Input: Write down the reported Ki of Clc1ccccc1N1CCN(CCCCOc2ccc3ccnn3c2)CC1 [Example E53] , test system: human D3 receptor (Homo sapiens, UniProt P35462).
Output: < 30 nM

Input: Lab request: please report Ki under test system human D3 receptor (Homo sapiens, UniProt P35462) for CC(=O)c1cnn2ccc(OCCCCN3CCN(c4ccccc4Cl)CC3)cc12 [Example E29]
Output: < 30 nM

Input: Reported Ki for human D3 receptor (Homo sapiens, UniProt P35462), given Clc1cccc(N2CCN(CCCCOc3ccc4ccnn4c3)CC2)c1Cl [Example E51] ?
Output: < 30 nM

Input: Request: Ki, test system human D3 receptor (Homo sapiens, UniProt P35462), entry COc1ccccc1N1CCN(CCCCOc2ccn3ncc(C)c3c2)CC1 [Example E75]
Output: < 30 nM

Input: Form: Entry = COc1ccc(N2CCN(CCCCOc3ccn4ncc(C=O)c4c3)CC2)cc1 [Example E24] | System = human D3 receptor (Homo sapiens, UniProt P35462) | Ki = ____
Output: 301 to 3000 nM

Input: Lab note: need Ki for O=Cc1c(OCCCCN2CCN(c3cccc(Cl)c3Cl)CC2)nn2ccccc12 [Example E4] on human D3 receptor (Homo sapiens, UniProt P35462), anyone have it?
Output: < 30 nM

Input: Which measured Ki belongs to COc1ccccc1N1CCN(CCCCOc2ccn3ncc(C(C)=O)c3c2)CC1 [Example E28] , tested on human D3 receptor (Homo sapiens, UniProt P35462)?
Output: < 30 nM

Input: Short answer please: Ki, human D3 receptor (Homo sapiens, UniProt P35462), entry ON=Cc1cnn2ccc(OCCCCN3CCN(c4cccc(Cl)c4Cl)CC3)cc12 [Example E30]
Output: < 30 nM
